# target_entity: CK2α’ (full-length, NanoLuc fusion) (Homo sapiens, UniProt P19784)
# Sequence (P19784 whole entry, the tested form may be a part): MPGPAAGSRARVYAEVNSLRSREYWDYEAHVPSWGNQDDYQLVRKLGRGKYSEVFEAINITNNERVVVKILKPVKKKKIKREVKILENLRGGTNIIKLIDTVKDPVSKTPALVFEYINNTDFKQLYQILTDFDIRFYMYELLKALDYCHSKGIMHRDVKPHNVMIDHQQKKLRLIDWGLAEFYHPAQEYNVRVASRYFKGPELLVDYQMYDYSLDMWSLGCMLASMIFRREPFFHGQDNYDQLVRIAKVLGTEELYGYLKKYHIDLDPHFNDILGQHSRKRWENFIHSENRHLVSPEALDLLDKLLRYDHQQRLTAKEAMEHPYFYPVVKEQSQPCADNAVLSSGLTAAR
# assay_name: cell-based
# Parameters: species or system HEK293T
metric_name: IC50

Exercise: Reported IC50 for "CC(C)(C)OC(=O)N(CCOCCO)c1ccn2ncc(-c3ccc(C#N)c(O)c3)c2n1" : what is it?
Key: > 50 µM
